test system: PIK3C2G; settings: concentration: 1 μM, replicates: in singlicate; n = 1;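 further: KINOMEscan kinase panel screen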
# reported %Inh; entries follow
Lab book: enter the figure in %, no units written.

Answered cases to consult:
Cc1c2ccc(N(C)c3ccnc(Nc4cccc(S(N)(=O)=O)c4)n3)cc2nn1Cc1ccccc1.Cl.Cl [GW787226]	0
Cl.Oc1cccc(Nc2ccnc3cc(-c4ccncc4)ccc23)c1 [GW494601]	2
Fc1ccc(-c2nn3c(OCC(F)(F)F)cccc3c2-c2ccncc2)cc1 [GW514784]	0
COc1ccc(Nc2ncc(C#N)c(Nc3ccccc3C(N)=O)n2)cc1N1CCN(C)CC1.Cl [GSK1558669]	0

## Input For Fc1ccc(-c2ncn(CCCN3CCOCC3)c2-c2cccnc2)cc1 [SB-211743] , what is its reported %Inh?
## Output 0

## Input Next up: COc1cc2c(cc1OCCN1CCN(C)CC1)ncc1c3ccc(C#N)cc3[nH]c21
## Output 25

## Input Next up: N#Cc1c(N2CCOCC2)sc(-c2ccn[nH]2)c1-c1ccc(Cl)cc1
## Output 37

## Input Next up: COc1ccc(COc2cc(-n3cnc4ccccc43)sc2C(N)=O)cc1 [GSK1024304]
## Output 0
